The reported measurements were obtained from the supplement of paper PMC11208160.

Assay: recombinant UMI read abundance after kanamycin selection (control-corrected) (log10(CPM+1)); higher = more efficient recombination; extreme values may be limits of the assay; sequences stand for … in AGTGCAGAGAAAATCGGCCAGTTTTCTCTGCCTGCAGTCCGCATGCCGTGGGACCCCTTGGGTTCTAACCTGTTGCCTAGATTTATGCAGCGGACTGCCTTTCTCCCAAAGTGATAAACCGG…AGGTTGGTTTCACT; site = the 11-nt donor;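 further: IS621 bridge recombinase in Escherichia coli cells against a fixed T5 target plasmid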
Parameter measured: recombinant UMI read abundance (log10)
The answer should be written as a number, with no unit following it.

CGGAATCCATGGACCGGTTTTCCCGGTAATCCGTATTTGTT (site CGGAATCCTAG) : 0
ACCCAGACATGGACCGGTTTTCCCGGTAATCCGTATTTGGG (site ACCTAGACTCC) : 0.00599
GTATACACATGGACCGGTTTTCCCGGTAATCCGTATTTGTA (site GTATACACTTA) : 2.12
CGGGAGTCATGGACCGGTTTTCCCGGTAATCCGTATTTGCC (site CTGGAGTCTGG) : 2.06
ATCGGGTCATGGACCGGTTTTCCCGGTAATCCGTATTTGGT (site ATCGGGTCTAC) : 1.85
CCGAAGACATGGACCGGTTTTCCCGGTAATCCGTATTTGGC (site CCGAAGACTGC) : 0
GAAGTCGCATGGACCGGTTTTCCCGGTAATCCGTATTTGCG (site GGAGTCGCTCG) : 0.0249
CCCCGCACATGGACCGGTTTTCCCGGTAATCCGTATTTGTA (site CCCCTCACTTA) : 0.00635

recombinant UMI read abundance (log10) in this record for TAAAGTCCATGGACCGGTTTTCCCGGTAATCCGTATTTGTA (site TAAAGCCCTTA) : 0.452

recombinant UMI read abundance (log10) in this record for CTACAGACATGGACCGGTTTTCCCGGTAATCCGTATTTGAG (site CTACAGACTCT) : 1.81

recombinant UMI read abundance (log10) in this record for GGTGTTCCATGGACCGGTTTTCCCGGTAATCCGTATTTGGT (site GATGTTCCTAC) : 0.0226

recombinant UMI read abundance (log10) in this record for GTCCATGCATGGACCGGTTTTCCCGGTAATCCGTATTTGGT (site GTTCATGCTAC) : 0.00783
